Assay: Tmax in Sprague-Dawley rat at 10 mg/kg, po measured upto 48 hrs by LC-MS/MS analysis
Assay type: ADME, organism-based
Conditions: in vivo
assay.metric: Tmax (h)
// return numeric value only (unit: h, not printed)

Lab note: COc1ccc(-c2ncc(C(=O)NCCCCCCC(=O)NO)s2)c(OC)c1 gave Tmax of 5.3

* * *

Entries annotated with measured pIC50
Molecular target: Histone deacetylase 3 (Homo sapiens)
Sequence (O15379 whole entry): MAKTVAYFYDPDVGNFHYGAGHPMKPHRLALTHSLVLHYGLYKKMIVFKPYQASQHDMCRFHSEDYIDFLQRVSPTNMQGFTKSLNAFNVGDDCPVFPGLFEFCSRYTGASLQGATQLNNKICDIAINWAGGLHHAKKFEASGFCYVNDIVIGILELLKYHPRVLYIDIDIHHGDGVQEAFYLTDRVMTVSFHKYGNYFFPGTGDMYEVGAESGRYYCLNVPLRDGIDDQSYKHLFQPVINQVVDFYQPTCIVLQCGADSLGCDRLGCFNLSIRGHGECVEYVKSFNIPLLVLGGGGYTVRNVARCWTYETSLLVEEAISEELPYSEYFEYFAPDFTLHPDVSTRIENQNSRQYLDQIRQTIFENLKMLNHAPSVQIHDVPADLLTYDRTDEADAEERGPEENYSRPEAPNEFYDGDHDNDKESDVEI
Test: Inhibition of recombinant human His-tagged HDAC3 expressed in baculovirus insect cells using Ac-Leu-Gly-Lys (Ac)-AMC as substrate preincubated for 5 mins followed by substrate addition and measured after 30 mins by fluorescence microtiter plate reader assay
A value of pIC50 is the negative decimal logarithm of a concentration given in moles per litre.

pIC50 in this record for COc1ccc(-c2ncc(C(=O)NCCCCCCC(=O)NO)s2)c(OC)c1 : 4.98

GET /value?item= Nc1ccccc1NC(=O)/C=C/c1cnc(-c2ccc3cc[nH]c3c2)s1 &field=pIC50 returns 5.69

The recorded pIC50 for COc1ccc(-c2ncc(/C=C/C(=O)Nc3ccccc3N)s2)cc1OC is 5.65

According to the records, this compound Cc1ccc(-c2ncc(/C=C/C(=O)Nc3ccccc3N)s2)cc1 displays pIC50 of 5.99

pIC50 for COc1ccc(-c2ncc(/C=C/C(=O)NO)s2)cc1 is 5.29

The compound listed as COc1ccc(-c2ncc(/C=C/C(=O)Nc3ccccc3N)s2)c(OC)c1OC has a reported pIC50 of 5.81

# pIC50 (compound: COc1cccc(-c2ncc(/C=C/C(=O)Nc3ccccc3N)s2)c1 ) is 5.31

Notebook: COc1cccc(-c2ncc(C(=O)NCCCCCCC(=O)NO)s2)c1 , pIC50 read as 5.03

According to the records, this compound COc1cc(-c2ncc(/C=C/C(=O)Nc3ccccc3N)s2)cc(OC)c1OC displays pIC50 of 5.53

Notebook: COc1cc(-c2ncc(/C=C/C(=O)NO)s2)cc(OC)c1OC , pIC50 read as 5.12

* * *

Test: Cmax in Sprague-Dawley rat at 10 mg/kg, po measured upto 48 hrs by LC-MS/MS analysis
Type: ADME, organism-based
Set-up: route oral, dose 10 mg/kg, time <=48
Settings: in vivo
assay.metric: Cmax (µg/mL)
Kindly answer with a numeric value in µg/mL, unit omitted.

Lookup result for COc1ccc(-c2ncc(C(=O)NCCCCCCC(=O)NO)s2)c(OC)c1 ; measured Cmax: 0.035

* * *

Assay: MRT (0 to infinity) in Sprague-Dawley rat at 2 mg/kg, iv measured upto 48 hrs by LC-MS/MS analysis
Type: ADME, organism-based
Details: in vivo
assay.metric: MRT inf (h)
Write the value in h as a bare number.

COc1ccc(-c2ncc(C(=O)NCCCCCCC(=O)NO)s2)c(OC)c1 has a reported MRT inf of 1.6

* * *

Assay: Tmax in Sprague-Dawley rat at 2 mg/kg, iv measured upto 48 hrs by LC-MS/MS analysis
Type: ADME, organism-based
Conditions: in vivo
assay.metric: Tmax (min)
Kindly provide the numeric value in min only, without the unit symbol.

So, COc1ccc(-c2ncc(C(=O)NCCCCCCC(=O)NO)s2)c(OC)c1 ? Its Tmax was 4.98

* * *

Assay: AUC(0 to t) in Sprague-Dawley rat at 2 mg/kg, iv measured upto 48 hrs by LC-MS/MS analysis
Assay type: ADME, organism-based
Parameters: route intravenous, dose 2 mg/kg, time <=48
Conditions: in vivo
assay.metric: AUC(0-t) at 48 h (ng·h/mL)
Numeric only. Scale: ng·h/mL

Summary for this compound, COc1ccc(-c2ncc(C(=O)NCCCCCCC(=O)NO)s2)c(OC)c1 : AUC(0-t) at 48 h is 318
